Where do the numbers come from? From paper PMC4786016.

Molecular target: human PPARγ1 (Homo sapiens)
Assay: GeneBLAzer PPARγ1 non-DA reporter gene assay
Hi, to clarify the labels: T covers EC15 (concentration inducing 15% activation) from 2 µM upward, F covers anything below 2 µM.

Query string: Tell me whether EC15 (concentration inducing 15% activation) is at least 2 µM here: Oc1c(I)cc(I)cc1I
Result string: T

Query string: Entry CCCCOC(=O)c1ccccc1C(=O)OCc1ccccc1 [BzBP, benzylbutyl phthalate] please
Result string: T

Query string: Entry CCCCC/C=C/C=C1/C(=O)C=C[C@@H]1C/C=C\CCCC(=O)O [15d-PJG2, reference compound] please
Result string: F

Query string: Entry O=P(Oc1ccccc1)(Oc1ccccc1)Oc1ccccc1 [TPP, triphenyl phosphate] please
Result string: T

Query string: Entry [Cl][Sn]([c]1ccccc1)([c]1ccccc1)[c]1ccccc1 [TPT, triphenyltin chloride] please
Result string: F

Query string: Entry O=C(O)c1cc(Br)c(Br)c(Br)c1Br please
Result string: T
